- ASSAY TARGET: GLP-1 Receptor (Homo sapiens, UniProt P43220)
- Sequence (P43220 24-463, species assumed): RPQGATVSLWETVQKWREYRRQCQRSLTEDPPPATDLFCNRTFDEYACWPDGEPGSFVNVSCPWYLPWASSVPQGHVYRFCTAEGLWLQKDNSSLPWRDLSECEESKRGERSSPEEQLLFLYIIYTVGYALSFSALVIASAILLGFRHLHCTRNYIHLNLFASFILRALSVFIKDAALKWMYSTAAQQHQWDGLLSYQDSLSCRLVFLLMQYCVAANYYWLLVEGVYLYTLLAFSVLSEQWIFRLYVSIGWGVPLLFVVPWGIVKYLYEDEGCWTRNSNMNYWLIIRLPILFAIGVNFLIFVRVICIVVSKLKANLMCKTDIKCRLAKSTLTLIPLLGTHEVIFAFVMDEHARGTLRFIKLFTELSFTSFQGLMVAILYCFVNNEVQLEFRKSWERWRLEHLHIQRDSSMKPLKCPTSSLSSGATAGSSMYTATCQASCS
- ASSAY INFO: GLP-1R agonist cAMP stimulation assay (HEK293/GLP1R/CRE-LUC cells, cAMP dynamic 2 kit)
- Type: cell-based
- DETAILS: HEK293/CRE-Luc cell line stably expressing the GLP-1 Receptor; 30 min incubation at 37° C.; read-out: GLP1R cAMP Stimulation DR: EC50
PARAMETER MEASURED: EC50 (nM)

Before answering, review these 5 worked examples.
Just so you know, measured EC50 for O=C(O)c1ccc2nc(CC3CCN(C(=O)c4cccc(Cc5ccc(Cl)cc5F)n4)CC3)n(C[C@@H]3CCO3)c2n1 [Compound 106a] came out at 463

Just so you know, measured EC50 for O=C(O)c1ccc2nc(CN3CCC(Oc4nc(Cc5ccc(Cl)cc5)ncc4F)CC3)n(C[C@H]3CCOC3)c2n1 [Compound 197a] came out at 2.5

Just so you know, measured EC50 for COC(C)Cn1c(CN2CCC(Oc3ccnc(Cc4ccc(Cl)cc4)n3)CC2)nc2ccc(C(=O)O)nc21 (stereo not shown) [Compound 195] came out at 0.6

Just so you know, measured EC50 for O=C(O)c1ccc2nc(CN3CCC(C(F)(F)c4cccc(Cc5ccc(Cl)cc5F)n4)CC3)n(C[C@@H]3CCO3)c2n1 [Compound 173a] came out at 3.8

Just so you know, measured EC50 for CCOCCn1c(CN2CCC(Oc3ccnc(Cc4ccc(Cl)cc4)n3)CC2)nc2ccc(C(=O)O)nc21 [Compound 194] came out at 2.9

P. O=C(O)c1ccc2nc(Cc3ccc(Oc4ccnc(Cc5ccc(Cl)cc5)n4)cc3)n(C[C@@H]3CCO3)c2n1 [Compound 186a]
Q. Cn1c(C[C@H]2CC[C@H](Oc3ccnc(Cc4ccc(Cl)cc4)n3)CC2)nc2ccc(C(=O)O)nc21 [Compound 180a]
Of P and Q , which carries the smaller reported EC50 figure? Identify your selection by its label. P
(P: 0.6 nM, Q: 2.3 nM)

* * *

- ASSAY TARGET: GLP-1 Receptor (Homo sapiens)
- ASSAY INFO: GLP-1R agonist cAMP stimulation assay (HEK293/GLP1R/CRE-LUC cells, cAMP dynamic 2 kit)
- Type: cell-based
- DETAILS: HEK293/CRE-Luc cell line stably expressing the GLP-1 Receptor; 30 min incubation at 37° C.; read-out: GLP1R cAMP Stimulation DR: EC50
PARAMETER MEASURED: EC50 (nM)

Just so you know, measured EC50 for O=C(O)c1ccc2nc(CN3CCC(Oc4ccc(=O)n(Cc5ccc(Cl)cc5F)n4)CC3)n(C[C@@H]3CCO3)c2n1 [Compound 144a] came out at 4.8

1. O=C(O)c1ccc2nc(Cc3ccc(Oc4nc(Cc5ccc(Cl)cc5)ncc4F)cc3)n(C[C@@H]3CCO3)c2n1 [Compound 189a]
2. O=C(O)c1ccc2nc(Cc3ccc(Oc4nc(Cc5ccc(Cl)cc5)ncc4F)cc3F)n(C[C@@H]3CCO3)c2n1 [Compound 190a]
Larger number for EC50: 1 , or 2 ? Identify your selection by its label. 1
(1: 0.69 nM, 2: 0.41 nM)

* * *

- ASSAY TARGET: GLP-1 Receptor (Homo sapiens)
- ASSAY INFO: GLP-1R agonist cAMP stimulation assay (HEK293/GLP1R/CRE-LUC cells, cAMP dynamic 2 kit)
- Assay type: cell-based
- DETAILS: HEK293/CRE-Luc cell line stably expressing the GLP-1 Receptor; 30 min incubation at 37° C.; read-out: GLP1R cAMP Stimulation DR: pEC50 (converted)
PARAMETER MEASURED: EC50 (nM)

Before answering, review these 4 worked examples.
Just so you know, measured EC50 for O=C(O)c1ccc2nc(CN3CCC(Oc4cccc(C(F)(F)c5ccc(Cl)cc5F)n4)CC3)n(C[C@@H]3CCO3)c2n1 [Compound 129a] came out at 1

Just so you know, measured EC50 for O=C(O)c1ccc2nc(CN3CCC(Oc4cncc(Cc5ccc(Cl)cc5)n4)CC3)n(C[C@@H]3CCO3)c2n1 [Compound 153a] came out at 0.158

Just so you know, measured EC50 for O=C(O)c1ccc2nc(CN3CCC(Oc4ccnc(Cc5ccc(Cl)cc5Cl)n4)CC3)n(C[C@@H]3CCO3)c2n1 [Compound 164a] came out at 0.1

Just so you know, measured EC50 for O=C(O)c1ccc2nc(CN3CCC(Oc4cnn(Cc5ccc(Cl)cc5F)c4)CC3)n(C[C@@H]3CCO3)c2n1 [Compound 184a] came out at 100

1. O=C(O)c1ccc2nc(CN3CCC(Oc4ccnc(Cc5ccc(C(F)(F)F)cc5F)n4)CC3)n(C[C@@H]3CCO3)c2n1 [Compound 163a]
2. Clc1ccc(Cc2nccc(OC3CCN(Cc4nc5ccc(-c6nnn[nH]6)nc5n4C[C@@H]4CCO4)CC3)n2)cc1 [Compound 199a]
Larger number for EC50: 1 , or 2 ? Identify your selection by its label. 2
